MEASURED_TARGET: human 5-HT2C receptor (Homo sapiens, UniProt P28335)
Sequence (P28335 33-458): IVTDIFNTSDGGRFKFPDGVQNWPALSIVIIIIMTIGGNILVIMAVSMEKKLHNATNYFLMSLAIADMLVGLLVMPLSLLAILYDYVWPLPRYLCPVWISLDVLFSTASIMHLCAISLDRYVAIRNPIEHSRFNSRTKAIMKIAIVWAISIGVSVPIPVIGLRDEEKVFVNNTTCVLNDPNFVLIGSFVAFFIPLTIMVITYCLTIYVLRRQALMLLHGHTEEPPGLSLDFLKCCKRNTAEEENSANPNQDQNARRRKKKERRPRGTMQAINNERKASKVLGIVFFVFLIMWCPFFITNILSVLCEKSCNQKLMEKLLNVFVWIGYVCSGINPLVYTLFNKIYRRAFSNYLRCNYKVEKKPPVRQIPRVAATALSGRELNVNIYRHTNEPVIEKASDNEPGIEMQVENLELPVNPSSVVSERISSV
TEST_NAME: 5-HT2C receptor-stimulated calcium mobilization (FLIPR) in CHO cells;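 note: Fluo-3-AM fluorescence read on FLIPR every 1 s, agonist added after 10 baseline reads, response taken as peak minus lowest raw fluorescence count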
Type: cell-based
MEASUREMENT_CONTEXT: CHO, percentage of the response observed with a maximally effective concentration of 5-HT; read-out: 5-HT2C Function Emax (%)
Documented Emax across a set of compounds

# COMPOUND, Emax
measured = [
    ("COc1cc2c(c(-c3cc(F)ccc3F)c1)OC(CN)C2 (racemic) [Example 366]", "80%"),
    ("CNCC1Cc2cc(Cl)cc(-c3cccc(F)c3F)c2O1 (racemic) [Example 463]", "80%"),
    ("NCC1Cc2cc(F)cc(-c3ccc(F)cc3)c2O1 (racemic) [Example 199]", "80%"),
]
